- Assay System: HLA-B*15:01
- Assay Comment: IEDB peptide-MHC binding, purified MHC/competitive/radioactivity; filed as Kd, often an IC50 or EC50 that approximates it; bounds were set here for any values at or beyond the usual limits of such assays
- Condition Description: source organism: Severe acute respiratory syndrome coronavirus 2
# Kd per record follows
Value expressed in nM; do not type the unit.

Record lookup: for HLA-B*15:01, what Kd belongs to DEFVVVTV ?
2050

What do you get for VATSRTLSY ?
267

Please look at the following sequence next.
Record lookup: for HLA-B*15:01, what Kd belongs to KNIDGYFKIY ?
1450

###

- Assay System: HLA-B*15:01
- Assay Comment: IEDB peptide-MHC binding, purified MHC/competitive/radioactivity; filed as Kd, often an IC50 or EC50 that approximates it; bounds were set here for any values at or beyond the usual limits of such assays
- Condition Description: source organism: Severe acute respiratory syndrome coronavirus 2
# pKd per record follows
pKd field: float, defined as -log10 of concentration (mol/L).

Reported pKd for FASEAARVV : what is it?
5.59

What do you get for HADQLTPTW ?
4.87

What do you get for KRVDWTIEY ?
6.45

What do you get for EEFEPSTQYEY ?
7.11

What do you get for EIKESVQTF ?
5.31

What do you get for SLEDKAFQL ?
5.80

What do you get for VGYLQPRTF ?
6.11

What do you get for FGDDTVIEV ?
5.62

Continuing:
Reported pKd for STSAFVETV : what is it?
4.98

What do you get for LEDKAFQL ?
4.83

###

# Kd per record follows
- Assay System: HLA-B*07:02
- Assay Comment: IEDB peptide-MHC binding, purified MHC/competitive/radioactivity; filed as Kd, often an IC50 or EC50 that approximates it; bounds were set here for any values at or beyond the usual limits of such assays
- Condition Description: source organism: Severe acute respiratory syndrome coronavirus 2
Value expressed in µM; do not type the unit.

Reported Kd for STSAFVETV : what is it?
8.86

What do you get for APHGHVMVEL ?
0.0061

What do you get for APRITFGGP ?
0.059

Please look at the following sequence next.
Reported Kd for FASEAARVV : what is it?
8.55

###

- Assay System: HLA-A*02:01
- Assay Comment: IEDB peptide-MHC binding, purified MHC/competitive/radioactivity; filed as Kd, often an IC50 or EC50 that approximates it; bounds were set here for any values at or beyond the usual limits of such assays
- Condition Description: source organism: Severe acute respiratory syndrome coronavirus 2
# log10(Kd) per record follows
Hey, these are logged values: log10 of Kd, nM being the unit before logging.

Reported log10(Kd) for STSAFVETV : what is it?
1.41

What do you get for SLEDKAFQL ?
1.30

What do you get for DEFVVVTV ?
4.11

What do you get for LEDKAFQL ?
3.59

Continuing:
Reported log10(Kd) for KNIDGYFKIY : what is it?
4.07

What do you get for APRITFGGP ?
2.95

What do you get for ELPDEFVVVTV ?
0.20

What do you get for FASEAARVV ?
2.69

What do you get for ELPDEFVVV ?
2.66
